The reported numbers originate from the supplement of paper PMC10681739.

assay.target: RUNX1 (UniProt Q01196)
Sequence (Q01196 whole entry): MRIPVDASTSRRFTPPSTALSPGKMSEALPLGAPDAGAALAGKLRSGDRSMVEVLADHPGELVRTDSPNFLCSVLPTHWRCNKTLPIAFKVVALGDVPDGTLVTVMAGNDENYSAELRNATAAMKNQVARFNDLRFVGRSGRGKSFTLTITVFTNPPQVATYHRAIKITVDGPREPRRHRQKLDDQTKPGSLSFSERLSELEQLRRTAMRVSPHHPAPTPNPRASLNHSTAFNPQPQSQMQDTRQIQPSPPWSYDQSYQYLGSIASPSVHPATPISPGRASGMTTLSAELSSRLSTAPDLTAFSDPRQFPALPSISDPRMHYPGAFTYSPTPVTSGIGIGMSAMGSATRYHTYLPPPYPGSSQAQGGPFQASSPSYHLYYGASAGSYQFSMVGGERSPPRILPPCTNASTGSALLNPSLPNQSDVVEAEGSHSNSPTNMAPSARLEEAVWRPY
protocol: RUNX1 binding intensity (PBM fluorescence), RUNX1 alone (arbitrary fluorescence units); higher = stronger binding
measurement.conditions: RUNX1 concentration 2 nM; ETS1 concentration 0 nM
measure.name: RUNX1 binding intensity

| polymer.sequence | assay.target | val |
| --- | --- | --- |
| CCTCGCCCCCTTCCGCACCCACCCCACCGCGCTCCG | RUNX1 (UniProt Q01196) | 2040 |
| AGTTTCCTGAACTCAGAGCACAGTTGTGGTGCAGAA | RUNX1 (UniProt Q01196) | 743 |
| CCACTGCTTCCGCCTTCTCTGCTGGCTGCGGGGAGC | RUNX1 (UniProt Q01196) | 904 |
| GGTTCTCTAGGGAGAGGATGTGGGTTTGTCTCTGGG | RUNX1 (UniProt Q01196) | 791 |
| AGGGCATTTCCTTTGGGGCTGGTGGTCACGGACAAC | RUNX1 (UniProt Q01196) | 723 |
| CCACGTAAAGGCGGAAGCGGTTGAGTGGACGCCATC | RUNX1 (UniProt Q01196) | 708 |
| CTCTGAGCAGGAAGTGACAAAACCACGCAGGGCAGG | RUNX1 (UniProt Q01196) | 798 |
| CAAACAGGTTCCGGCCGGACTACAGCGCCCACAATG | RUNX1 (UniProt Q01196) | 712 |
| TGGGTGCCGGATTCGGTGAGTGTGGTTCTCATGATG | RUNX1 (UniProt Q01196) | 654 |
| AGTTTCTTCTTTCCGGTGGGTTTGTGGTCTTGCTGA | RUNX1 (UniProt Q01196) | 1390 |
| GCCGATGAGGAAGTGAGGGCCAACCACACTGCTCAG | RUNX1 (UniProt Q01196) | 878 |
| ACCAGCCCAGGAAGCATCTGCGGTTCAAGTGGCCAC | RUNX1 (UniProt Q01196) | 1130 |

----------
Below is a list of entries, each paired with its recorded ETS1 binding intensity value.
assay.target: ETS1 (UniProt P14921)
Sequence: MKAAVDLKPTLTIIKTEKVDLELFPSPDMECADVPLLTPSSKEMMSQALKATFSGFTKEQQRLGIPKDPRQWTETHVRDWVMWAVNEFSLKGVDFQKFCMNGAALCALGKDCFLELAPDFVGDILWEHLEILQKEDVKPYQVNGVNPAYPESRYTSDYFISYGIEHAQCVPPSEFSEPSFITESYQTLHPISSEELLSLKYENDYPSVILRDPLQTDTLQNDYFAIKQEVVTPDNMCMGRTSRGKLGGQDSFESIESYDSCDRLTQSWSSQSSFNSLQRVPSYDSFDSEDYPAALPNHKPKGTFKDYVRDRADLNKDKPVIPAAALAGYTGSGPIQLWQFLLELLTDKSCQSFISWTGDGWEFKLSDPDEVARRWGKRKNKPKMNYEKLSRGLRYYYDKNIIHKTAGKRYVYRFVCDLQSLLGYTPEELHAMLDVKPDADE
protocol: ETS1 binding intensity (PBM fluorescence) in presence of RUNX1, normalised to ETS1-only experiment (arbitrary fluorescence units); higher = stronger binding
measurement.conditions: ETS1 concentration 1 nM; RUNX1 concentration 25 nM
measure.name: ETS1 binding intensity

| polymer.sequence | assay.target | val |
| --- | --- | --- |
| CCTTTACGTTTTCCTGTTGCGGGTTCTATCGCTCTG | ETS1 (UniProt P14921) | 592 |
| CTGCACAGGGAAGTGAGTGTCGAGCTCACCGCACCG | ETS1 (UniProt P14921) | 690 |
| TGGCATTCTCCTTCCTGTCTCCTAACCACAGCCCAC | ETS1 (UniProt P14921) | 2050 |
| GTACGCTCTTCACTTCCCGTACCCGCGCCCGGCAGG | ETS1 (UniProt P14921) | 634 |
| GCAGCATTTCCTGACTTCTTCGCCCCTGTGGTTGCA | ETS1 (UniProt P14921) | 480 |
| GATACCTAGAAGCCAGGAAACCGCGAGCTGCAGTCC | ETS1 (UniProt P14921) | 2130 |
| TCAGCTGACACAGGAAGTGGTAAAGCTATTATCTGT | ETS1 (UniProt P14921) | 16400 |
| GAGAGCTGAGCGGAAGCTCAGCTGTGGGGCTGGTTG | ETS1 (UniProt P14921) | 1990 |
| CTCGCCCCATTTCCCGTAAATATCAGCCACAGACCA | ETS1 (UniProt P14921) | 464 |
| GGCACTTCCGGTCCTGACCTGAAGCGGTAACCGTCA | ETS1 (UniProt P14921) | 8600 |
| ACACCACTCAGGAAGACAAAGCCACACCTCACACCG | ETS1 (UniProt P14921) | 440 |
| CCAGCTACACAGGATGCTGCGGTGGGCGGAATGCTC | ETS1 (UniProt P14921) | 9170 |
| GCAAACAGCACATCCGGTGTGGTCGACGGGTCCTCC | ETS1 (UniProt P14921) | 6160 |
| GGCAGGAAAGAGCTGATGCATTTCAACCGCAGCCTG | ETS1 (UniProt P14921) | 2430 |
| GCACGCGCCGGGCGGAACCCACAGGCCTGGAAGCGA | ETS1 (UniProt P14921) | 803 |
| CCGGTCCTGACCGGAAGCGGTAACCGTCACTCCTTC | ETS1 (UniProt P14921) | 29000 |
| TGAAGGAGCGGAAGGGTTGCTTGCAGACCGCACGGT | ETS1 (UniProt P14921) | 1360 |
| TGGAGAGCACAGGAAGTGGCCCACAGCCCAGGCCAA | ETS1 (UniProt P14921) | 6890 |
| GGACCGGAAGTTAAGGCGTTCGCGGCGTGTGGTAAG | ETS1 (UniProt P14921) | 11800 |
| TGGGGACAGGAAATGTTTACTGCCTGTGGCTTGCTG | ETS1 (UniProt P14921) | 4240 |
| AGTTTCTCAGCTTCCTGTGTGGTTTTCTTGATCTGC | ETS1 (UniProt P14921) | 2630 |
| CTGTCTGCTTCCCGTGGCCAGCCCTGACCGCGGCCC | ETS1 (UniProt P14921) | 621 |
| GACGCATAAACAGGAAGGCCTGCGGGAGGGCCCGCC | ETS1 (UniProt P14921) | 948 |
| CGGAGGCGGCCGGAAGTAGCGCTGCGGTTGGCAGCT | ETS1 (UniProt P14921) | 64100 |
| GAGCGCAGGACGGAAGCTCGGTGCGGGTGCGGCCTC | ETS1 (UniProt P14921) | 938 |
| CGGTTCCGGCGCCTGAAGTTTTAGCTGCGGTGGCGG | ETS1 (UniProt P14921) | 676 |
| AATGGCGGGAAGTAAGAGGAATGTGGGCCTGACTGC | ETS1 (UniProt P14921) | 386 |
| GGATGGCGGAAGAGGCGGCTGAGGCCGCAGGACGTG | ETS1 (UniProt P14921) | 4800 |
| CTGCAGACAGGAGGATGTGGGCTTGCGCGCAAACAG | ETS1 (UniProt P14921) | 745 |
| CCCTTTTCCTTCCGGCCTGTGCGGCTTATAAGATCT | ETS1 (UniProt P14921) | 1090 |
| CCAGCCCAGGAAACAAGGAACCCCAAAGCCACAGGA | ETS1 (UniProt P14921) | 579 |
| GAGAAAAGAGACTGAGGATGTGGTTTGGGGTGTGGG | ETS1 (UniProt P14921) | 6260 |
| GATCTTCCTGCAACCCCCCGAGACAACCACCGAACA | ETS1 (UniProt P14921) | 887 |
| AGAAGGAACTACACAGGAAACCCACTGCCTCGATGG | ETS1 (UniProt P14921) | 1640 |
| GATCTGTGCTCAGGATGTGGTGAGAGAATAAGGAAG | ETS1 (UniProt P14921) | 2870 |
| GCCTGCAGCTTCTTCCTGTGGCTTCTGCATCTCAGG | ETS1 (UniProt P14921) | 3930 |
| CATTTACAGAAAAGGAAACCGCAAGTTTGAGCAAGT | ETS1 (UniProt P14921) | 2150 |
| TAGCATGTGAGCTTCCTGTGGGTTTGTGCAGCCCCA | ETS1 (UniProt P14921) | 654 |
| GAGAAACAAACAGGATGTGGTCTCTGCCCTGGAGGA | ETS1 (UniProt P14921) | 12000 |
| TTTTTAAGGTCAGGATGTGGGCACATCTAAGGGGCA | ETS1 (UniProt P14921) | 1730 |
| CGCCCACCACTTCCTGCTGGCGGTCGGCAAGCGTTG | ETS1 (UniProt P14921) | 2240 |
| TACCACTGAAAGGATGTGCGGGTAGAAATGAGCAAT | ETS1 (UniProt P14921) | 938 |
| CGTCACTTCCCACGCGACTGCCTGCGGGAAACATGG | ETS1 (UniProt P14921) | 704 |
| CCCGGACCGTTTCCGTGCTGTGGTCCCGGGTTCTGG | ETS1 (UniProt P14921) | 412 |
| TACATAGGCGGAAGTGGCCTGCGGGCGCCGGAGTTG | ETS1 (UniProt P14921) | 9480 |
| GCGCTACAGGAACTTCCTGCGCGGTTGCTGTCGTTG | ETS1 (UniProt P14921) | 1570 |
| GGCTGCAGGAAGTGGGAAGGTGTGGCTTTGAGTCTC | ETS1 (UniProt P14921) | 2460 |
| TACTACTTACCAGCAGGATGTGGTCCCTGCCCACTG | ETS1 (UniProt P14921) | 7040 |
| TGACAGACCCGGAAATAAGAGGAGACCACACACTTG | ETS1 (UniProt P14921) | 2660 |
| AACCAAGAGGATTTCCTGCCCACACACTCAGCGTCT | ETS1 (UniProt P14921) | 751 |
